Biological target: SARS-CoV-2 MPRO (Severe acute respiratory syndrome coronavirus 2 (2019-nCoV) (SARS-CoV-2))
Test: SARS-CoV-2 Mpro enzymatic assay (FRET substrate cleavage)
Format: biochemical
Settings: C-His6-tagged SARS-CoV-2 MPRO 25 nM, 30 min pre-incubation at RT, 60 min at 30° C., 10 doses from 25 μM; read-out: M pro IC50
Listing: IC50 of selected compounds

{"Compound": "C[C@](C(=O)NC1CCC2(CC1)COC2)(c1cncnc1)N(C(=O)[C@H](F)Cl)c1ccc(OC(F)(F)F)cc1 [Example 107a]", "Target of assay": "SARS-CoV-2 MPRO (Severe acute respiratory syndrome coronavirus 2 (2019-nCoV) (SARS-CoV-2))", "IC50": "< 100 nM"}

Query string: Can you look up IC50 on SARS-CoV-2 MPRO (Severe acute respiratory syndrome coronavirus 2 (2019-nCoV) (SARS-CoV-2)) for C[C@](C(=O)NC1CC(F)(F)C1)(c1cncnc1)N(C(=O)[C@H](F)Cl)c1ccc(OC(F)(F)F)cc1 [Example 18a] ?
Result string: < 100 nM

Query string: Form entry - test system: SARS-CoV-2 MPRO (Severe acute respiratory syndrome coronavirus 2 (2019-nCoV) (SARS-CoV-2)); read-out: IC50; compound: `C[C@](C(=O)NC1CCC(F)(F)CC1)(c1cncnc1)N(C(=O)[C@H](F)Cl)c1ccc(OC(F)(F)F)cc1`
Result string: < 100 nM

Query string: Checklist item: IC50 tested on SARS-CoV-2 MPRO (Severe acute respiratory syndrome coronavirus 2 (2019-nCoV) (SARS-CoV-2)), entry C[C@](C(=O)NC1CCOC1)(c1cncnc1)N(C(=O)[C@H](F)Cl)c1ccc(OC(F)(F)F)cc1 (single isomer, unassigned) [Example 6b] , value?
Result string: < 100 nM

###

Tested on: SARS-CoV-2
Experiment: In vitro antiviral cell-based assay (live SARS-CoV-2), plaque reduction assay in VeroE6 cells
Conditions: Severe acute respiratory syndrome coronavirus 2, Vero C1008, footnote key printed as IC50 (nM)
Quantity measured: EC50

Query string: Identify the measured EC50 of C[C@](C(=O)NC1CCC(F)(F)CC1)(c1cncnc1)N(C(=O)[C@H](F)Cl)c1ccc(-c2cncs2)cc1 (single isomer, unassigned) for SARS-CoV-2.
Result string: 100 to 1000 nM

###

Molecular target: UniProt:P0DTD1
Assay: SARS-CoV-2 Mpro enzymatic assay (FRET substrate cleavage)
Format: biochemical
Details: C-His6-tagged SARS-CoV-2 MPRO 25 nM, 30 min pre-incubation at RT, 60 min at 30° C., 10 doses from 25 μM; read-out: M pro IC50
pIC50: −log10 of the molar value.
As shown below, each of these compounds has a reported pIC50 value.

Recorded pIC50, per entry:
{"Compound": "C[C@](C(=O)NC1CCC(F)(F)CC1)(c1cncnc1)N(C(=O)[C@H](F)Cl)c1ccc(S(F)(F)(F)(F)F)cc1 [Example 22a]", "Measurement": "> 7.00"}
{"Compound": "C[C@@](C(=O)NC1CCOCC1)(c1cncnc1)N(C(=O)[C@H](F)Cl)c1ccc(S(F)(F)(F)(F)F)cc1 [Example 23b]", "Measurement": "> 7.00"}
{"Compound": "C[C@@](C(=O)NC1CCOCC1)(c1cncnc1)N(C(=O)[C@H](F)Cl)c1ccc(C(F)(F)C(F)(F)F)cc1 [Example 108b]", "Measurement": "< 5.00"}
{"Compound": "C[C@](C(=O)NCCc1cccc(F)c1)(c1cncnc1)N(C(=O)[C@H](F)Cl)c1ccc(OC(F)(F)F)cc1 [Example 36a]", "Measurement": "> 7.00"}
{"Compound": "C[C@@](C(=O)NC1CCC(F)(F)CC1)(c1cncnc1)N(C(=O)[C@H](F)Cl)c1ccc(OC(F)(F)Cl)cc1 [Example 92b]", "Measurement": "6.00 to 7.00"}

Query string: Return reported pIC50; argument: C[C@](C(=O)NC1CCC(F)(F)CC1)(c1cncc(F)c1)N(C(=O)[C@H](F)Cl)c1ccc(SC(F)(F)F)cc1 [Example 95a]
Result string: > 7.00

Query string: Given the compound C[C@@](C(=O)NC1CCOCC1)(c1cncnc1)N(C(=O)[C@H](F)Cl)c1ccc(SC(F)(F)F)cc1 [Example 34b] , what is its reported pIC50?
Result string: < 5.00

Query string: Given the entry C[C@](C(=O)NC1CCOCC1)(c1cncnc1)N(C(=O)C(Cl)Cl)c1ccc(OC(F)(F)Cl)cc1 [Example 115a] , report its measured pIC50.
Result string: > 7.00

###

Entries and their IC50
Target: SARS-CoV-2 MPRO (Severe acute respiratory syndrome coronavirus 2 (2019-nCoV) (SARS-CoV-2))
Assay: SARS-CoV-2 Mpro enzymatic assay (FRET substrate cleavage)
Assay type: biochemical
Conditions: C-His6-tagged SARS-CoV-2 MPRO 25 nM, 30 min pre-incubation at RT, 60 min at 30° C., 10 doses from 25 μM; read-out: M pro IC50

// worked examples, IC50 included
{"Compound": "C[C@@](C(=O)NC1CCC(F)(F)CC1)(c1cncnc1)N(C(=O)[C@H](F)Cl)c1ccc(-c2cncs2)cc1 [Example 1b]", "Target of assay": "SARS-CoV-2 MPRO (Severe acute respiratory syndrome coronavirus 2 (2019-nCoV) (SARS-CoV-2))", "Measurement": "1000 to 10000 nM"}
{"Compound": "C[C@@](C(=O)NC1CCOCC1)(c1cncc(F)c1)N(C(=O)[C@H](F)Cl)c1ccc(OC(F)(F)F)cc1 [Example 14b]", "Target of assay": "SARS-CoV-2 MPRO (Severe acute respiratory syndrome coronavirus 2 (2019-nCoV) (SARS-CoV-2))", "Measurement": "> 10000 nM"}
{"Compound": "C[C@](C(=O)NC1CCOCC1)(c1cncc(F)c1)N(C(=O)[C@H](F)Cl)c1ccc(OC(F)(F)F)cc1 [Example 14a]", "Target of assay": "SARS-CoV-2 MPRO (Severe acute respiratory syndrome coronavirus 2 (2019-nCoV) (SARS-CoV-2))", "Measurement": "< 100 nM"}
{"Compound": "C[C@](C(=O)NC1CCOCC1)(c1cncnc1)N(C(=O)[C@H](F)Cl)c1ccc(OC(F)(F)F)cc1 [Example 5a]", "Target of assay": "SARS-CoV-2 MPRO (Severe acute respiratory syndrome coronavirus 2 (2019-nCoV) (SARS-CoV-2))", "Measurement": "< 100 nM"}
{"Compound": "C[C@](C(=O)NC1CCOCC1)(c1cncc(F)c1)N(C(=O)[C@H](F)Cl)c1ccc(S(F)(F)(F)(F)F)cc1 [Example 97a]", "Target of assay": "SARS-CoV-2 MPRO (Severe acute respiratory syndrome coronavirus 2 (2019-nCoV) (SARS-CoV-2))", "Measurement": "< 100 nM"}
{"Compound": "C[C@](C(=O)NC1CCOCC1)(c1cncc(F)c1)N(C(=O)[C@H](F)Cl)c1ccc(-c2nccs2)cc1 [Example 103a]", "Target of assay": "SARS-CoV-2 MPRO (Severe acute respiratory syndrome coronavirus 2 (2019-nCoV) (SARS-CoV-2))", "Measurement": "< 100 nM"}

Let us examine a further case.
Query string: Query (compound): C[C@@](C(=O)NC1CCOCC1)(c1cccnc1)N(C(=O)[C@H](F)Cl)c1ccc(SC(F)(F)F)cc1 [Example 105b] ; field requested: IC50
Result string: > 10000 nM

###

Target: SARS-CoV-2 MPRO (Severe acute respiratory syndrome coronavirus 2 (2019-nCoV) (SARS-CoV-2))
Experiment: SARS-CoV-2 Mpro enzymatic assay (FRET substrate cleavage)
Format: biochemical
Conditions: C-His6-tagged SARS-CoV-2 MPRO 25 nM, 30 min pre-incubation at RT, 60 min at 30° C., 10 doses from 25 μM; read-out: M pro IC50
Quantity measured: IC50

{"Compound": "C[C@](C(=O)NC1CCC(F)(F)CC1)(c1cncnc1)N(C(=O)[C@H](F)Cl)c1ccc2c(c1)OC(F)(F)O2 [Example 113a]", "IC50": "< 100 nM"}
{"Compound": "C[C@@](C(=O)NC1CCOCC1)(c1cncnc1)N(C(=O)[C@H](F)Cl)c1ccc(OC(F)(F)F)cc1", "IC50": "1000 to 10000 nM"}
{"Compound": "C[C@@](C(=O)NC1CC(F)(F)C1)(c1cncnc1)N(C(=O)[C@H](F)Cl)c1ccc(OC(F)(F)F)cc1 [Example 18b]", "IC50": "1000 to 10000 nM"}

Query compound follows.
Query string: Entry C[C@](C(=O)NC1CCOCC1)(c1cncc(F)c1)N(C(=O)[C@H](F)Cl)c1ccc(OC(F)(F)Cl)cc1 [Example 98a] has what IC50?
Result string: < 100 nM

###

Molecular target: SARS-CoV-2 MPRO (Severe acute respiratory syndrome coronavirus 2 (2019-nCoV) (SARS-CoV-2))
Assay: SARS-CoV-2 Mpro enzymatic assay (FRET substrate cleavage)
Type: biochemical
Conditions: M pro IC50, C-His6-tagged SARS-CoV-2 MPRO 25 nM, 30 min pre-incubation at RT, 60 min at 30° C., 10 doses from 25 μM
Parameter: IC50. Scope: all listed entries.

// worked examples, IC50 included
{"Molecule": "CC1(C)COCC[C@H]1NC(=O)[C@](C)(c1cncnc1)N(C(=O)[C@H](F)Cl)c1ccc(OC(F)(F)F)cc1 (single isomer, unassigned) [Example 76c]", "Target of assay": "SARS-CoV-2 MPRO (Severe acute respiratory syndrome coronavirus 2 (2019-nCoV) (SARS-CoV-2))", "IC50": "> 10 µM"}
{"Molecule": "C[C@@](C(=O)N[C@@H]1CC[C@H](NC(=O)C(F)(F)F)C1)(c1cncc(F)c1)N(C(=O)[C@H](F)Cl)c1ccc(OC(F)(F)F)cc1 [Example 109b]", "Target of assay": "SARS-CoV-2 MPRO (Severe acute respiratory syndrome coronavirus 2 (2019-nCoV) (SARS-CoV-2))", "IC50": "1 to 10 µM"}
{"Molecule": "C[C@](C(=O)NC1CCOCC1)(c1cncnc1)N(C(=O)[C@H](F)Cl)c1ccc(OC(F)(F)C(F)(F)F)cc1 [Example 32a]", "Target of assay": "SARS-CoV-2 MPRO (Severe acute respiratory syndrome coronavirus 2 (2019-nCoV) (SARS-CoV-2))", "IC50": "< 0.1 µM"}

Query string: Endpoint output: IC50 of C[C@@](C(=O)NC1CCC2(CC1)COC2)(c1cncnc1)N(C(=O)[C@H](F)Cl)c1ccc(OC(F)(F)F)cc1 (single isomer, unassigned) [Example 107b] . Value?
Result string: > 10 µM
